The origin of these recorded values is the supplement of paper PMC11699113.

Hi there, I'd appreciate the recorded cell viability for every entry that follows.
tested on: ED cells (E. derm NBM-6, ATCC CCL-57); test: cell viability (ATP, CellTiter-Glo) relative to untreated control (fraction of control); higher = less cytotoxic; conditions: 80 µM; incubation time: 1h

cell viability in this record for Cc1nnc(C(=O)NC(C)(C)c2nc(C(=O)NCc3ccc(F)cc3)c(O)c(=O)n2C)o1 : 1.05

Kindly note the recorded cell viability for Cc1cn([C@H]2C[C@H](N=[N+]=[N-])[C@@H](CO)O2)c(=O)[nH]c1=O , which is 1.04

Nc1nc(=O)n([C@@H]2CS[C@H](CO)O2)cc1F yielded cell viability of 1.01

Summary for this molecule, Cc1ccnc2c1NC(=O)c1cccnc1N2C1CC1 : cell viability is 1.05

get_value(item= CC(C)c1nc(CN(C)C(=O)N[C@H](C(=O)N[C@@H](Cc2ccccc2)C[C@H](O)[C@H](Cc2ccccc2)NC(=O)OCc2cncs2)C(C)C)cs1 , readout=cell viability) returns 0.899

What the record says about COC(=O)N[C@H](C(=O)N[C@@H](Cc1ccccc1)[C@@H](O)CN(Cc1ccc(-c2ccccn2)cc1)NC(=O)[C@@H](NC(=O)OC)C(C)(C)C)C(C)(C)C : cell viability is 1.01

# cell viability (molecule: Nc1nc(NC2CC2)c2ncn([C@H]3C=C[C@@H](CO)C3)c2n1 ) is 0.994

get_value(item= Cc1cc(C#N)cc(C)c1Oc1nc(Nc2ccc(C#N)cc2)nc(N)c1Br , readout=cell viability) returns 0.346

###

system: ED cells (E. derm NBM-6, ATCC CCL-57); assay: cell viability (ATP, CellTiter-Glo) relative to untreated control (fraction of control); higher = less cytotoxic; conditions: 25 µM; incubation time: 1h
Sorting guide: entries reporting cell viability beneath 1 go in the yes (1) pile, the rest go in the no (0) pile.

[in] Quick check: cell viability of Cc1nnc(C(=O)NC(C)(C)c2nc(C(=O)NCc3ccc(F)cc3)c(O)c(=O)n2C)o1 under 1?
[out] no (0)

[in] Decide: cell viability of Cc1ccnc2c1NC(=O)c1cccnc1N2C1CC1 strictly below 1?
[out] no (0)

[in] For Cc1cc(C#N)cc(C)c1Oc1nc(Nc2ccc(C#N)cc2)nc(N)c1Br , is the recorded cell viability below the cut-off of 1?
[out] yes (1)

###

tested on: ED cells (E. derm NBM-6, ATCC CCL-57); assay: cell viability (ATP, CellTiter-Glo) relative to untreated control (fraction of control); higher = less cytotoxic; conditions: 2 µM; incubation time: 1h
Where a name gives a salt, the structure may show the parent alone.
Metric name: cell viability
Lab note: record just the number, no unit beside it.

// cell viability value for CC(C)CN(C[C@@H](OP(=O)(O)O)[C@H](Cc1ccccc1)NC(=O)O[C@H]1CCOC1)S(=O)(=O)c1ccc(N)cc1 : 1.1

Recorded result, O=C(NCc1c(F)cc(F)cc1F)c1cn2c(c(O)c1=O)C(=O)N1[C@H]3CC[C@H](C3)O[C@@H]1C2 , cell viability: 0.995

Measured cell viability of O=C1Nc2ccc(Cl)cc2[C@@](C#CC2CC2)(C(F)(F)F)O1 : 1.04

Lab note: measured cell viability of Cc1nnc(C(=O)NC(C)(C)c2nc(C(=O)NCc3ccc(F)cc3)c(O)c(=O)n2C)o1 was 1.07

Reported cell viability for CC(C)(C)NC(=O)[C@@H]1C[C@@H]2CCCC[C@@H]2CN1C[C@@H](O)[C@H](Cc1ccccc1)NC(=O)[C@H](CC(N)=O)NC(=O)c1ccc2ccccc2n1 was 1.03

Kindly note the recorded cell viability for Nc1ccn([C@@H]2CS[C@H](CO)O2)c(=O)n1 , which is 1.02

The reported cell viability of the molecule CC(C)OC(=O)OCOP(=O)(CO[C@H](C)Cn1cnc2c(N)ncnc21)OCOC(=O)OC(C)C [tenofovir disoproxil fumarate] was 1.01

Recorded cell viability (molecule Cc1cn([C@H]2C[C@H](N=[N+]=[N-])[C@@H](CO)O2)c(=O)[nH]c1=O ): 1.06

Value of cell viability reported for the molecule Nc1nc(NC2CC2)c2ncn([C@H]3C=C[C@@H](CO)C3)c2n1 is 0.999

Value of measured cell viability for the entry CCC[C@@]1(CCc2ccccc2)CC(O)=C([C@H](CC)c2cccc(NS(=O)(=O)c3ccc(C(F)(F)F)cn3)c2)C(=O)O1 : 0.997

Note to self: cell viability recorded for Nc1nc(=O)n([C@@H]2CS[C@H](CO)O2)cc1F was 0.996

For this molecule ( CC(C)c1nc(CN(C)C(=O)N[C@H](C(=O)N[C@@H](Cc2ccccc2)C[C@H](O)[C@H](Cc2ccccc2)NC(=O)OCc2cncs2)C(C)C)cs1 ), measured cell viability is 1.05

Record COC(=O)N[C@H](C(=O)N[C@@H](Cc1ccccc1)[C@@H](O)CN(Cc1ccc(-c2ccccn2)cc1)NC(=O)[C@@H](NC(=O)OC)C(C)(C)C)C(C)(C)C . Reported cell viability: 1.06

Short answer for Cc1ccnc2c1NC(=O)c1cccnc1N2C1CC1 : cell viability was 1.04

// Cc1cc(C#N)cc(C)c1Oc1nc(Nc2ccc(C#N)cc2)nc(N)c1Br : cell viability value = 1.02
